Tested on: HIV
assay.method.text: Reduction of HIV cytopathic effect, CEM-6 (CEMV test, six days)
Assay type: cell-based
condition.summary: CEM cells, free HIV, read-out: Activity of Anti-HIV Compounds (EC50), CEM-6
pEC50: −log10 of the molar value.
Hi, to clarify the labels: rule met covers pEC50 from 6 upward, rule not met covers anything below 6.

{"compound": "Cc1ccsc1C(=O)Nc1ccc(Cl)c(C(=O)OC(C)C)c1 [Compound 106]", "discrete.label": "rule not met"}
{"compound": "Cc1occc1C(=O)Nc1ccc(Cl)c(C(=O)OC(C)C)c1 [Compound 79]", "discrete.label": "rule not met"}
{"compound": "CC1=C(C(=O)Nc2ccc(C)c(C(=O)OC(C)C)c2)SCCO1 [Compound 73]", "discrete.label": "rule met"}
{"compound": "Cc1coc(C)c1C(=O)Nc1ccc(Cl)c(C(=O)OC(C)C)c1 [Compound 80]", "discrete.label": "rule not met"}
{"compound": "CC(C)OC(=O)c1cc(NC(=S)OCC2CC2)ccc1Cl [Compound 46]", "discrete.label": "rule met"}

---

Tested on: HIV
assay.method.text: microbe, parasite or virus in culture
Assay type: cell-based
condition.summary: Human immunodeficiency virus 1, CCRF-CEM, CEM cells, free HIV; read-out: Activity of Anti-HIV Compounds (EC50), CEMV
pEC50: −log10 of the molar value.

{"molecule": "CC(C)OC(=O)c1cc(NC(=O)c2c(Br)c(Br)c(Br)c(Br)c2C(=O)O)ccc1Cl [Compound 21]", "assayed.system": "HIV", "pEC50": 4.24}
{"molecule": "CCCOC(=O)c1cc(NC(=O)C2=C(C)OCCS2)ccc1Cl [Compound 5]", "assayed.system": "HIV", "pEC50": 7.15}
{"molecule": "CC(C)OC(=O)c1cc(NC(=O)C(C)(C)C)c(F)cc1Cl [Compound 30]", "assayed.system": "HIV", "pEC50": 4.37}
{"molecule": "Cc1ccoc1C(=O)Nc1ccc(Cl)c(C(=O)OC(C)C)c1 [Compound 17]", "assayed.system": "HIV", "pEC50": 5.48}
{"molecule": "CC(C)OC(=O)c1cc(NC(=S)OC(C)C)ccc1Cl [Compound 32]", "assayed.system": "HIV", "pEC50": 7.46}
{"molecule": "CC1=C(C(=O)Nc2cc(C(=O)OC(C)C)ccc2F)SCCO1 [Compound 13]", "assayed.system": "HIV", "pEC50": 4.82}
{"molecule": "CCC1=C(C(=O)Nc2ccc(Cl)c(C(=O)OC(C)C)c2)SCCO1 [Compound 7]", "assayed.system": "HIV", "pEC50": 6.08}
{"molecule": "CC(C)OC(=O)c1cc(NC(=O)c2c(Br)c(Br)c(Br)c(Br)c2C(=O)O)c(F)cc1Cl [Compound 20]", "assayed.system": "HIV", "pEC50": 4.16}
{"molecule": "CC1=C(C(=O)Nc2ccc(Cl)c(C(=O)OC(C)C)c2)SCCS1 [Compound 27]", "assayed.system": "HIV", "pEC50": 5.86}

---

assay.method.text: Toxicity of test compound to uninfected CEM cell line (growth inhibition)
Assay type: cell-based, human
condition.summary: human, cem cells; 5.46 × 10^-7 Molar; read-out: UNINFECTED CULTURE Response (%)
readout.type: viability at 168 h, 0.546 µM

{"molecule": "COC(=O)c1cc(NC(=O)C2=C(C)OCCS2)ccc1Cl [Compound 3]", "experimental.value": "84%"}
